Data provenance is patent US9255071B2.

- Tested on: Mycobacterium smegmatis
Consider the following compounds; for each one, report its MIC.
Numbers only, in µg/mL.

These solved cases illustrate the format of a correct answer.
COc1ccc(/C=C/C(=O)NCCC(C)C)cc1C(F)F = 8
COc1ccc(/C=C/C(=O)NC(C)C)cc1C = 32

The following compounds each have a reported value; give each one's MIC.
1. CC(=O)Oc1ccc(/C=C/C(=O)NC(C)C)cc1C(F)F
2. COc1ccc(/C=C/C(=O)Nc2ccccc2)cc1C(F)F
3. COc1ccc(/C=C/C(=O)NCC(C)C)cc1C(F)F
4. COc1ccc(/C=C/C(=O)NC(C)C)cc1C(F)F
5. COc1ccc(/C=C/C(=O)NC(C)C)cc1

Reply:
[64, 64, 32, 8, 32]

Task item: Give its MIC value. Item: COc1ccc(/C=C/C(=O)NNC(=O)c2ccncc2)cc1C(F)F
Reply: 64
